Attribution: the supplement of paper PMC9112550

- Test system: Escherichia coli TOP10
- assay: shrunken log2 fold change of peptide-encoding DNA abundance (4.5 h post-induction vs induction); higher = less antimicrobial activity (less host growth inhibition)
- run conditions: time post-induction: 4.5 h; library: site-saturation at positions 5, 18, 19, 20
assay readout: shrunken log2 fold change
Write no unit; give the number alone.

[
  {
    "residue string": "RRIRARPPRLPRPRPRPGHQPRP",
    "shrunken log2 fold change": 0.304
  },
  {
    "residue string": "RRIRPRPPRLPRPRPRPQDQPRP",
    "shrunken log2 fold change": -0.126
  },
  {
    "residue string": "RRIRTRPPRLPRPRPRPKHNPRP",
    "shrunken log2 fold change": -0.362
  },
  {
    "residue string": "RRIRHRPPRLPRPRPRPRHNPRP",
    "shrunken log2 fold change": -0.4
  },
  {
    "residue string": "RRIRTRPPRLPRPRPRPLASPRP",
    "shrunken log2 fold change": 0.125
  },
  {
    "residue string": "RRIRQRPPRLPRPRPRPQRIPRP",
    "shrunken log2 fold change": -0.226
  }
]

Value of shrunken log2 fold change reported for the sequence `RRIRHRPPRLPRPRPRPTYRPRP` is -0.0234

Memo: `RRIRSRPPRLPRPRPRPERRPRP` , reported shrunken log2 fold change: 0.23

Lab note: `RRIRHRPPRLPRPRPRPTVKPRP` gave shrunken log2 fold change of -0.255

get_value(item= `RRIRTRPPRLPRPRPRPIFWPRP` , readout=shrunken log2 fold change) returns 0.85

Lab book: shrunken log2 fold change of `RRIRVRPPRLPRPRPRPEYGPRP` noted as -0.00905

The recorded shrunken log2 fold change for `RRIRTRPPRLPRPRPRPMWDPRP` is 0.00971

Per the record, `RRIRIRPPRLPRPRPRPSLSPRP` has shrunken log2 fold change of -0.692

# shrunken log2 fold change of `RRIRWRPPRLPRPRPRPKSYPRP` = 0.0188

shrunken log2 fold change reading for `RRIRQRPPRLPRPRPRPAQIPRP` : 0.028

###

Reported shrunken log2 fold change values for the following sequences.
- Test system: Escherichia coli TOP10;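 also: peptides expressed intracellularly from a pBAD plasmid library in pooled LB shake-flask culture, induced with 0.3% L-arabinose, DNA abundance read by NGS, three biological replicates, DESeq2 with apeglm shrinkage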
- assay: shrunken log2 fold change of peptide-encoding DNA abundance (4.5 h post-induction vs induction); higher = less antimicrobial activity (less host growth inhibition)
- run conditions: time post-induction: 4.5 h; library: site-saturation at positions 5, 18, 19, 20
Please give only the number in your answer, with no unit.

[
  {
    "residue string": "RRIRSRPPRLPRPRPRPKTNPRP",
    "shrunken log2 fold change": 0.00294
  },
  {
    "residue string": "RRIRNRPPRLPRPRPRPAQQPRP",
    "shrunken log2 fold change": 0.017
  },
  {
    "residue string": "RRIRWRPPRLPRPRPRPRCEPRP",
    "shrunken log2 fold change": 0.545
  },
  {
    "residue string": "RRIRLRPPRLPRPRPRPIVNPRP",
    "shrunken log2 fold change": -0.803
  },
  {
    "residue string": "RRIRSRPPRLPRPRPRPEEPPRP",
    "shrunken log2 fold change": 0.729
  },
  {
    "residue string": "RRIRTRPPRLPRPRPRPPGQPRP",
    "shrunken log2 fold change": 0.622
  },
  {
    "residue string": "RRIRMRPPRLPRPRPRPVPIPRP",
    "shrunken log2 fold change": 0.0109
  },
  {
    "residue string": "RRIRVRPPRLPRPRPRPRDAPRP",
    "shrunken log2 fold change": 0.422
  }
]

Entry `RRIRQRPPRLPRPRPRPLCDPRP` under Escherichia coli TOP10 had shrunken log2 fold change of -0.131

Reported shrunken log2 fold change (Escherichia coli TOP10) for entry `RRIRFRPPRLPRPRPRPISHPRP` is -0.202

Field shrunken log2 fold change (system: Escherichia coli TOP10) for entry `RRIRQRPPRLPRPRPRPDMMPRP` = 0.142

Form field, shrunken log2 fold change with Escherichia coli TOP10, item `RRIRHRPPRLPRPRPRPGLSPRP` : -0.0763

Lab entry: Escherichia coli TOP10 assay, sequence `RRIRRRPPRLPRPRPRPESMPRP` , shrunken log2 fold change = 0.358

Entry `RRIRLRPPRLPRPRPRPPNHPRP` : shrunken log2 fold change on Escherichia coli TOP10 = -0.246

Param item: `RRIRSRPPRLPRPRPRPERPPRP` ; param system: Escherichia coli TOP10; output shrunken log2 fold change: 0.384
